Cited source: the MegaScale stability set (Tsuboyama et al. 2023)

B1: 1ZHC (parent)
chain: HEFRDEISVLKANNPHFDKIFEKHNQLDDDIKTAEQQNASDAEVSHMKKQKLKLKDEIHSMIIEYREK

variants of: B1; assay: folding stability dG (cDNA display proteolysis); higher = more stable; conditions: PBS, room temperature
READOUT_NAME: folding stability dG (kcal/mol)
API: value field is a number in kcal/mol; no unit string.

Answered examples (4):
[
  {
    "VARIANT_ID": "V9L",
    "folding stability dG, kcal/mol": 1.23
  },
  {
    "VARIANT_ID": "Q50N",
    "folding stability dG, kcal/mol": -0.038
  },
  {
    "VARIANT_ID": "H46K",
    "folding stability dG, kcal/mol": 1.46
  },
  {
    "VARIANT_ID": "Q37S",
    "folding stability dG, kcal/mol": 1
  }
]

QUERY: Fill in reported folding stability dG for this entry: `I7W`
RESULT: 0.295

QUERY: Fill in reported folding stability dG for this entry: `K53C`
RESULT: 0.879

QUERY: Fill in reported folding stability dG for this entry: `K68Y`
RESULT: 0.578

QUERY: Fill in reported folding stability dG for this entry: `D18M`
RESULT: 2.03
